- Tested on: M14 melanoma
- Assay Details: NCI-60 one-dose screen, 48 h (100 = growth as untreated, 0 = no growth, -100 = all killed)
- Assay Conditions: 10 µM unless noted
Compounds without any hit were thinned out: in the full panel of roughly 83,000, 20% have a hit.
Parameter: growth (%)
Express the result in % but write the number alone.

Examples from the recorded data:
Compound: N#Cc1nn(-c2cc(=O)[nH]c3ccc(Br)cc23)c(N)c1C#N
Quantitative Result: 90.1

Compound: CN1CCOCCN(C)Cc2ccc3ccc(cc3c2)CN(C)CCOCCN(C)Cc2ccc3ccc(cc3c2)C1
Quantitative Result: 99.4

Compound: c1cc(OCCN2CCCCCC2)ccc1CNc1ccc2nc(CCC3CCCCC3)[nH]c2c1
Quantitative Result: -69.9

Compound: O=C(NN1C(=O)CSC1c1cccc([N+](=O)[O-])c1)c1ccc(NC(=O)c2ccccn2)cc1 (stereo unspecified)
Quantitative Result: 102

Compound: O=C(NCCCCO)c1cncnc1Nc1ccc2c(ccn2Cc2cccc(F)c2)c1
Quantitative Result: 89.9

Compound: CCN(CC)CCN1C(=O)c2c(c3c4ccccc4[nH]c3c3ccc4ccccc4c23)C1=O
Quantitative Result: -85

Compound: COC(=O)Cn1c2c(c3c(OC)cccc31)C(=O)c1ccccc1-2
Quantitative Result: 103

Compound: Cc1nn(-c2ccc([N+](=O)[O-])cc2)c2ncnc(N/N=C/c3ccccc3O)c12
Quantitative Result: -17.7

The reported growth of the compound Cc1cc(C)c2c(c1)N(C)c1ncnc(-n3c(C)nc4cc(C)ccc43)c1CC2C (stereo unspecified) was 25.3

The reported growth of the compound COc1cc(-c2nccc3[nH]c(-c4cccc5[nH]ccc45)nc23)cc(OC)c1OC was 20.6

The reported growth of the compound COC1C(O)CC(OC2CC(OC3CC(O[C@@H]4C(=O)c5c(cc6cc(OC7CC(OC8CC(O)C(O)C(C)O8)C(O)C(C)O7)c(C)c(O)c6c5O)CC4[C@H](OC)C(=O)C(C)=O)OC(C)C3O)OC(C)C2O)OC1C (stereo partly specified) was -34.4

----------
- Tested on: SR leukemia
- Assay Details: NCI-60 one-dose screen, 48 h
- Assay Conditions: 10 µM unless noted
The panel holds about 83,000 compounds, 20% with a hit somewhere; the sample as a whole holds those more often. Active and inactive are the calls of the source. Rule for the calls: active = growth percent below 10; inactive = the rest.
Outcome (select one): Y (active), N (inactive)

These solved cases illustrate the format of a correct answer.
Molecule: COc1ccc2c(O)c(/C=C3\N=Nc4ncccc43)oc2c1C[C@@H]1CCNC[C@H]1F
Assigned Class: Y

Molecule: C=C(C)[C@@H]1CC[C@]2(C(=O)N3CCN(C)CC3)CC[C@]3(C)[C@H](CC[C@@H]4[C@@](C)(CCC(=O)O)[C@H](C(=C)C)CC[C@]43C)[C@@H]12
Assigned Class: N

Molecule: Cn1c(C#N)ccc1-c1ccc(F)c(NC(=O)c2ccc(F)cc2)c1
Assigned Class: N

Task: Please state the recorded outcome for this molecule: COc1ccc(Cl)cc1Nc1nc(C(F)(F)F)ccc1C(=O)N/N=C/c1ccc([N+](=O)[O-])cc1
Result: Y

Task: Please state the recorded outcome for this molecule: CN(C)CCCn1c2c(c3ccncc3c1=O)C(=O)c1ccccc1-2
Result: Y

Task: Please state the recorded outcome for this molecule: Brc1ccc(Nc2nc(Nc3cnc4ccccc4c3)c3[nH]cnc3n2)cc1
Result: N

Task: Please state the recorded outcome for this molecule: COc1ccc(N/N=C/c2cn(-c3ccc(C(=O)O)cc3)nc2-c2cc3ccccc3oc2=O)cc1
Result: N

Task: Please state the recorded outcome for this molecule: O=C(Nc1ncc(Cc2ccccc2)s1)c1sc2ccccc2c1Cl
Result: N

Task: Please state the recorded outcome for this molecule: Cc1ncc(C(=O)Nc2ccc(CN3CCN(C)CC3)c(C(F)(F)F)c2)cc1C#Cc1cnc(N)c2ccc(C#N)cc12
Result: Y
